- Test system: Crude diglycosidase
- protocol.notes: Examination of pH in the conversion into isoflavone aglycons by diglycosidase using soybean materials
- Format: biochemical, Penicillium multicolor IAM7153
- test.context: pH6.6; heat treatment of enzyme: no; reaction time 1 h
- Protocol: A substrate solution of 450 μL was prepared by suspending 50 mg of each soybean material (roasted soy flour (manufactured by Fuji Shokuryo K.K.), soymilk (manufactured by Gitoh Shokuhin K.K.), defatted soybean (manufactured by Fuji Seiyu K.K.), concentrated soybean protein (manufactured by Fuji Seiyu K.K.)), and adjusting the pH to 2 to 11 with hydrochloric acid or sodium hydroxide. […]
result.type: Decomposition efficiency of daidzin family in concentrated soybean protein (%)
The response must be a number in % with no trailing unit.

Recorded Decomposition efficiency of daidzin family in concentrated soybean protein for O=c1c(-c2ccc(O)cc2)coc2cc(O[C@@H]3O[C@H](CO)[C@@H](O)[C@H](O)[C@H]3O)ccc12 with Crude diglycosidase, please?
5.0

Recorded Decomposition efficiency of daidzin family in concentrated soybean protein for O=c1c(-c2ccc(O)cc2)coc2cc(O)ccc12 with Crude diglycosidase, please?
51.0

Recorded Decomposition efficiency of daidzin family in concentrated soybean protein for CC(=O)OC[C@H]1O[C@@H](Oc2ccc3c(=O)c(-c4ccc(O)cc4)coc3c2)[C@H](O)[C@@H](O)[C@@H]1O with Crude diglycosidase, please?
43.9
